Recorded zone of inhibition at 3000 µg/mL, one value per entry.
Test system: Escherichia coli
Assay: agar plate paper-disc inhibition zone screening
Assay type: cell-based
Conditions: Dose 3.0 mg/ml, read-out: Inhibition Zone Diameter mm (Dose mg/ml) E. Coli
Kindly write the number and append the unit.

Worked examples, 8 molecules total:
- structure string: "CN(C)CCN(C)c1ccc2c3c(nn2CCNCCO)-c2c(O)ccc(O)c2C(=O)c13"
  zone of inhibition at 3000 µg/mL: "15 mm"
- structure string: "CCN(CC)CCCCNc1ccc2c3c(nn2CCO)-c2ccccc2C(=O)c13"
  zone of inhibition at 3000 µg/mL: "0 mm"
- structure string: "CN(C)CCNc1ccc2c3c(nn2CCO)-c2c(O)ccc(O)c2C(=O)c13"
  zone of inhibition at 3000 µg/mL: "0 mm"
- structure string: "CCN(CC)CCNc1ccc2c3c(nn2C)-c2ccccc2C(=O)c13"
  zone of inhibition at 3000 µg/mL: "15 mm"
- structure string: "NCCCCNc1ccc2c3c(nn2CCNCCO)-c2c(O)ccc(O)c2C(=O)c13"
  zone of inhibition at 3000 µg/mL: "15 mm"
- structure string: "CCN(CC)CCCNc1ccc2c3c(nn2CCO)-c2ccccc2C(=O)c13"
  zone of inhibition at 3000 µg/mL: "0 mm"
- structure string: "CN(C)CCn1nc2c3c(c(NCCCN)ccc31)C(=O)c1c(O)ccc(O)c1-2"
  zone of inhibition at 3000 µg/mL: "15 mm"
- structure string: "NCCn1nc2c3c(c(Cl)ccc31)C(=O)c1c(O)ccc(O)c1-2"
  zone of inhibition at 3000 µg/mL: "15 mm"

Now take the following molecule into account.
Incoming: Quick one: zone of inhibition at 3000 µg/mL for O=C1c2ccccc2-c2nn(CCNCCO)c3ccc(NCCNCCO)c1c23 ?
Outgoing: 16 mm

---

Tested on: Escherichia coli
Experiment: agar plate paper-disc inhibition zone screening
Type: cell-based
Details: Dose 3.0 mg/ml, read-out: Inhibition Zone Diameter mm (Dose mg/ml) E. Coli
# reported zone of inhibition at 3000 µg/mL; entries follow
Quick reminder: number only, in mm, skip the unit.

Check out these entries, answers already filled in.
- structure string: "CN(C)CCNCCn1nc2c3c(c(Cl)ccc31)C(=O)c1c(O)ccc(O)c1-2"
  property name: "zone of inhibition at 3000 µg/mL"
  endpoint result: 0
- structure string: "CCN(CC)CCn1nc2c3c(c(NCCN4CCNCC4)ccc31)C(=O)c1ccccc1-2"
  property name: "zone of inhibition at 3000 µg/mL"
  endpoint result: 0
- structure string: "CCN(CC)CCn1nc2c3c(c(Cl)ccc31)C(=O)c1c(O)ccc(O)c1-2"
  property name: "zone of inhibition at 3000 µg/mL"
  endpoint result: 0
- structure string: "NCCNc1ccc2c3c(nn2CCN)-c2c(O)ccc(O)c2C(=O)c13"
  property name: "zone of inhibition at 3000 µg/mL"
  endpoint result: 0

Incoming: So what does the record say about zone of inhibition at 3000 µg/mL for CCN(CC)CCCCNc1ccc2c3c(nn2CCN(CC)CC)-c2ccccc2C(=O)c13 ?
Outgoing: 15

---

Test system: lymphocytic leukemia P388
Test: in vivo lymphocytic leukemia P388 test
Set-up: species or system mice
Conditions: Mus musculus, P388, ip, 720 h, P388, Dose 6.25 mg/kg intraperitoneally, two single doses four days apart; read-out: T/C × 100 (Percent)
property name: response vs control in vivo at 6.25 mg/kg (%)
Please reply with the bare figure in % and do not write the unit itself.

Past entries and their recorded results:
- structure string: "CN(C)CCCn1nc2c3c(c(NCCN)ccc31)C(=O)c1c(O)ccc(O)c1-2"
  quantity unit: "%"
  endpoint result: 186
- structure string: "NCCNc1ccc2c3c(nn2CCO)-c2c(O)ccc(O)c2C(=O)c13"
  quantity unit: "%"
  endpoint result: 135
- structure string: "CN(C)CCNCCNc1ccc2c3c(nn2CCNCCO)-c2c(O)ccc(O)c2C(=O)c13"
  quantity unit: "%"
  endpoint result: 169
- structure string: "CCN(CC)CCn1nc2c3c(c(NCCNC)ccc31)C(=O)c1c(O)ccc(O)c1-2"
  quantity unit: "%"
  endpoint result: 163
- structure string: "NCCCNCCCCNCCCNc1ccc2c3c(nn2CCNCCO)-c2c(O)ccc(O)c2C(=O)c13"
  quantity unit: "%"
  endpoint result: 127

Incoming: Could you share which response vs control in vivo at 6.25 mg/kg value was measured for NCCn1nc2c3c(c(NCCNCCO)ccc31)C(=O)c1ccccc1-2 ?
Outgoing: 158

Incoming: Quick one: response vs control in vivo at 6.25 mg/kg for CN(C)CCn1nc2c3c(c(NCCN)ccc31)C(=O)c1c(O)ccc(O)c1-2 ?
Outgoing: 182

Incoming: Give its response vs control in vivo at 6.25 mg/kg value. Item: CN(C)CCCn1nc2c3c(c(NCCNCCO)ccc31)C(=O)c1c(O)ccc(O)c1-2
Outgoing: 185

Incoming: Suppose we examine the molecule CNCCNc1ccc2c3c(nn2CCNCCO)-c2c(O)ccc(O)c2C(=O)c13 ; what response vs control in vivo at 6.25 mg/kg value has been reported?
Outgoing: 277

Incoming: Entry CN(C)CCn1nc2c3c(c(NCCCN)ccc31)C(=O)c1c(O)ccc(O)c1-2 : reported response vs control in vivo at 6.25 mg/kg = ?
Outgoing: 196

Incoming: Could you share which response vs control in vivo at 6.25 mg/kg value was measured for CCN(CC)CCNc1ccc2c3c(nn2CCNCCO)-c2c(O)ccc(O)c2C(=O)c13 ?
Outgoing: 154

---

Tested on: Escherichia coli
Test: agar plate paper-disc inhibition zone screening
Assay type: cell-based
Details: Dose 1.0 mg/ml, read-out: Inhibition Zone Diameter mm (Dose mg/ml) E. Coli
List of zone of inhibition at 1000 µg/mL values.
Enter your answer as a number in mm; do not include the unit.

Please review the entries below; each comes with its answer.
- structure string: "CCN(CC)CCn1nc2c3c(c(NCCN)ccc31)C(=O)c1ccccc1-2"
  measured on: "Escherichia coli"
  endpoint result: 14
- structure string: "CCN(CC)CCn1nc2c3c(c(NCCN)ccc31)C(=O)c1c(O)ccc(O)c1-2"
  measured on: "Escherichia coli"
  endpoint result: 15
- structure string: "O=C1c2c(NCCNCCO)cccc2-c2nn(CCNCCO)c3cccc1c23"
  measured on: "Escherichia coli"
  endpoint result: 20
- structure string: "Cn1nc2c3c(c(NCCNCCO)ccc31)C(=O)c1ccccc1-2"
  measured on: "Escherichia coli"
  endpoint result: 14

Incoming: Report zone of inhibition at 1000 µg/mL for CCN(CC)CCNc1ccc2c3c(nn2CCN(CC)CC)-c2ccccc2C(=O)c13 please.
Outgoing: 15

Incoming: May I ask what zone of inhibition at 1000 µg/mL has been recorded for CCN(CC)CCn1nc2c3c(c(NCCN4CCOCC4)ccc31)C(=O)c1ccccc1-2 ?
Outgoing: 14
